Sourced from ChEMBL document CHEMBL4689842

- System: Fibroblast
- assay.comment: Multiplex assay against human fibroblast
- Type: toxicity, cell-based
- measurement.setup: 24 h, 1 µM, compound concentration 1 uM, replicate 1
recorded.metric: Population Pyknosed Nuclei (%)

[
  {
    "compound": "O=C(Nc1ccc(-c2ccnc(Nc3ccc(N4CCOCC4)cc3)n2)cc1)[C@@H]1CCCN1",
    "result": "23%"
  },
  {
    "compound": "CN1CCN(C(=O)C(C)(C)c2ccc(C(=O)Nc3cn4cc(-c5cc(C(C)(C)C)cc(C(C)(C)C)c5)ccc4n3)cc2)CC1",
    "result": "16%"
  },
  {
    "compound": "CN1C2CCC1CC(OC(c1ccc(F)cc1)c1ccc(F)cc1)C2.Cl (stereo not drawn)",
    "result": "17%"
  },
  {
    "compound": "O=C(Cc1ccc(-c2ccc(OCCN3CCOCC3)cc2)cn1)NCc1ccccc1",
    "result": "26%"
  },
  {
    "compound": "CNc1cc(Oc2cc(C(=O)Nc3cc(N4CCN(C)CC4)cc(C(F)(F)F)c3)ccc2C)ncn1",
    "result": "30%"
  },
  {
    "compound": "CCOC(=O)c1c(C)[nH]c2ccc3c(c12)CN1CCc2cc(OC)ccc2C1O3 (stereo not drawn)",
    "result": "12%"
  },
  {
    "compound": "O=C(Nc1cccnn1)N1CCC(=Cc2cccc(Oc3ccc(C(F)(F)F)cn3)c2)CC1",
    "result": "13%"
  },
  {
    "compound": "CCCn1c(=O)c2[nH]c(-c3cnn(Cc4cccc(C(F)(F)F)c4)c3)nc2n(CC)c1=O",
    "result": "36%"
  },
  {
    "compound": "CNC(=O)c1ccc(Nc2nc(OC3CCCC3)c3c(-c4ccc5nc(C)oc5c4)c[nH]c3n2)c(OC)c1",
    "result": "22%"
  },
  {
    "compound": "CN(C)C(=O)C(CCN1CCC(O)(c2ccc(Cl)cc2)CC1)(c1ccccc1)c1ccccc1.Cl [LOPERAMIDE HYDROCHLORIDE]",
    "result": "25%"
  },
  {
    "compound": "COc1cc2ncnc(Nc3ccc(F)c(Cl)c3)c2cc1NC(=O)/C=C/CN1CCCCC1 [DACOMITINIB ANHYDROUS]",
    "result": "17%"
  },
  {
    "compound": "Cl.O=C(c1ccc(Nc2nccc(-c3cc4ccccc4s3)n2)cc1)N1CCC(N2CCCC2)CC1",
    "result": "8%"
  },
  {
    "compound": "Cc1ccc2nc(NCCN)c3ncc(C)n3c2c1.O=C(O)C(F)(F)F.O=C(O)C(F)(F)F",
    "result": "17%"
  },
  {
    "compound": "O=C1NC(=O)C(c2cnc3ccccn23)=C1c1cn2c3c(cc(F)cc13)CN(C(=O)N1CCCCC1)CC2",
    "result": "38%"
  },
  {
    "compound": "CCCS(=O)(=O)Nc1ccc(F)c(C(=O)c2c[nH]c3ncc(Cl)cc23)c1F",
    "result": "12%"
  },
  {
    "compound": "CCNc1cc(N[C@H]2CC[C@H](O)CC2)nc(Nc2ccc3c(ccn3Cc3ccccc3)c2)n1",
    "result": "10%"
  },
  {
    "compound": "Cl.Oc1ccc2c3c1O[C@H]1c4[nH]c5c(c4C[C@@]4(O)[C@@H](C2)N(CC2CC2)CC[C@]314)C[C@@]1(O)[C@H]2Cc3ccc(O)c4c3[C@@]1(CCN2CC1CC1)[C@H]5O4",
    "result": "29%"
  },
  {
    "compound": "Cl.O=c1c2cccn2c2ccccc2n1CCCN1CCC(c2ccc(Cl)cc2)CC1",
    "result": "27%"
  },
  {
    "compound": "O=C(Nc1ccc(-n2nc(-c3cccnc3)cc2C(F)(F)F)cn1)c1ccc(-c2ccccc2)c(F)c1",
    "result": "30%"
  },
  {
    "compound": "CCN1CCN(Cc2ccc(Nc3ncc(F)c(-c4cc(F)c5nc(C)n(C(C)C)c5c4)n3)nc2)CC1.CS(=O)(=O)O",
    "result": "15%"
  },
  {
    "compound": "CCOc1cc2ncc(C#N)c(Nc3ccc(OCc4ccccn4)c(Cl)c3)c2cc1NC(=O)/C=C/CN(C)C",
    "result": "37%"
  },
  {
    "compound": "CCc1cccc(CC)c1NC(=O)c1nn(C)c2c1CCc1cnc(Nc3ccc(C(=O)NC4CCN(C)CC4)cc3OC(F)(F)F)nc1-2",
    "result": "35%"
  },
  {
    "compound": "COc1cccc2cc(-c3nc([C@H]4CC[C@H](C(=O)O)CC4)n4ncnc(N)c34)[nH]c12",
    "result": "12%"
  },
  {
    "compound": "NC(=O)c1cccc(-c2cc(Nc3ccc(OC(F)(F)F)cc3)ncn2)c1",
    "result": "13%"
  },
  {
    "compound": "CCN1CCN(c2ccc(Nc3cc(N(C)C(=O)Nc4c(Cl)c(OC)cc(OC)c4Cl)ncn3)cc2)CC1",
    "result": "39%"
  },
  {
    "compound": "O=C(Nc1ccc(Cl)cc1)Nc1cccc(-c2cccc(N3CCCC3)n2)c1",
    "result": "15%"
  },
  {
    "compound": "COc1cc(N2CCN(C)CC2)ccc1Nc1ncc2c(n1)N(C)c1ccccc1C(=O)N2C",
    "result": "19%"
  },
  {
    "compound": "S=C(NCCCc1c[nH]cn1)NCCCN(Cc1ccc(Cl)c(Cl)c1)c1ccc(Br)cn1",
    "result": "18%"
  },
  {
    "compound": "COC(=N)c1nc2ccc3ncnc(Nc4ccc(OC)cc4F)c3c2s1",
    "result": "7%"
  },
  {
    "compound": "Cc1ccc(C(=O)Nc2cccc(C(F)(F)F)c2)cc1Nc1nc(-c2cccnc2)nc2c1cnn2C",
    "result": "17%"
  },
  {
    "compound": "CCc1cccc(CC)c1NC(=O)c1nn(C)c2c1CCc1cnc(Nc3ccc(N4CCN(C)CC4)cc3OC)nc1-2",
    "result": "44%"
  },
  {
    "compound": "Cn1nc(C(F)(F)F)cc1-c1cnc(N2CCc3cc(S(=O)(=O)Nc4c(F)cc(Cl)cc4F)cc(N4CCCC4=O)c32)nc1",
    "result": "23%"
  },
  {
    "compound": "O=C1N/C(=N/c2ccccc2F)S/C1=C\\c1ccc(C(=O)O)cc1",
    "result": "26%"
  }
]
